All figures here come from patent US20130230459A1.

procedure_details: Perfused brain radiometabolite analysis (30 min p.i.)
Assay type: in vivo, Wistar rats
value_kind: polar metabolite in perfused cerebrum
Note to self: number, then unit, no commentary.

# molecule, value_kind, assay_result
records = [
    ("[11CH3]Oc1ccc(F)cc1C1CCN(c2ccn3c(CC4CC4)nnc3c2Cl)CC1 [[^11C]B-4]", "polar metabolite in perfused cerebrum", "7.6%"),
    ("[11CH3]Oc1ccc(F)c(F)c1C1CCN(c2ccn3c(CC4CC4)nnc3c2Cl)CC1 [[^11C]B-10]", "polar metabolite in perfused cerebrum", "6.9%"),
    ("[11CH3]Oc1cc(F)cc(F)c1C1CCN(c2ccn3c(CC4CC4)nnc3c2Cl)CC1 [[^11C]B-7]", "polar metabolite in perfused cerebrum", "7.1%"),
]

Using the record for [11CH3]Oc1c(F)ccc(F)c1C1CCN(c2ccn3c(CC4CC4)nnc3c2Cl)CC1 [[^11C]B-2] , report its polar metabolite in perfused cerebrum. 9.7 ± 0.3%

----------
procedure_details: Biodistribution studies of 11C tracers
Format: in vivo, Wistar rats
condition_notes: 2 min p.i., normalized for body weight
value_kind: SUV Striatum
Reply with the value as a number alone.

Use these answered entries as a reference point.
# compound, value_kind, assay_result
records = [
    ("[11CH3]Oc1cccc(F)c1C1CCN(c2ccn3c(CC4CC4)nnc3c2Cl)CC1 [[^11C]B-6]", "SUV Striatum", 1.01),
    ("[11CH3]Oc1ccc(F)c(F)c1C1CCN(c2ccn3c(CC4CC4)nnc3c2Cl)CC1 [[^11C]B-10]", "SUV Striatum", 1.37),
    ("[11CH3]Oc1cc(F)cc(F)c1C1CCN(c2ccn3c(CC4CC4)nnc3c2Cl)CC1 [[^11C]B-7]", "SUV Striatum", 1.13),
]

--- query ---
Using the record for [11CH3]Oc1c(F)ccc(F)c1C1CCN(c2ccn3c(CC4CC4)nnc3c2C(F)(F)F)CC1 [[^11C]B-3] , report its SUV Striatum. 0.99

----------
procedure_details: Biodistribution studies of 11C tracers
Type: in vivo, Wistar rats
condition_notes: 30 min p.i., normalized for body weight
Listed next: entries and their corresponding SUV Hippocampus.
Reply with the value as a number alone.

Use these answered entries as a reference point.
# molecule, value_kind, assay_result
measured = [
    ("[11CH3]Oc1cccc(F)c1C1CCN(c2ccn3c(CC4CC4)nnc3c2Cl)CC1 [[^11C]B-6]", "SUV Hippocampus", 1.36),
    ("[11CH3]Oc1cc(F)cc(F)c1C1CCN(c2ccn3c(CC4CC4)nnc3c2Cl)CC1 [[^11C]B-7]", "SUV Hippocampus", 1.20),
    ("[11CH3]Oc1c(F)ccc(F)c1C1CCN(c2ccn3c(CC4CC4)nnc3c2Cl)CC1 [[^11C]B-2]", "SUV Hippocampus", 1.49),
    ("[11CH3]Oc1ccc(F)c(F)c1C1CCN(c2ccn3c(CC4CC4)nnc3c2Cl)CC1 [[^11C]B-10]", "SUV Hippocampus", 0.93),
]

Using the record for [11CH3]Oc1ccc(F)cc1C1CCN(c2ccn3c(CC4CC4)nnc3c2Cl)CC1 [[^11C]B-4] , report its SUV Hippocampus. 1.57

Then this molecule: [11CH3]Oc1c(F)ccc(F)c1C1CCN(c2ccn3c(CC4CC4)nnc3c2C(F)(F)F)CC1 [[^11C]B-3] 0.84

----------
Listed next: entries and their corresponding % ID Stomach.
procedure_details: Biodistribution studies of 11C tracers
Assay type: in vivo, Wistar rats
condition_notes: 30 min p.i.
Note to self: number, then unit, no commentary.

Use these answered entries as a reference point.
# molecule, % ID Stomach
records = [
    ("[11CH3]Oc1cc(F)cc(F)c1C1CCN(c2ccn3c(CC4CC4)nnc3c2Cl)CC1 [[^11C]B-7]", "1.4 ± 0.2 % ID"),
    ("[11CH3]Oc1cccc(F)c1C1CCN(c2ccn3c(CC4CC4)nnc3c2Cl)CC1 [[^11C]B-6]", "2.3 ± 0.5 % ID"),
    ("[11CH3]Oc1c(F)ccc(F)c1C1CCN(c2ccn3c(CC4CC4)nnc3c2C(F)(F)F)CC1 [[^11C]B-3]", "3.8 ± 1.4 % ID"),
    ("[11CH3]Oc1ccc(F)cc1C1CCN(c2ccn3c(CC4CC4)nnc3c2Cl)CC1 [[^11C]B-4]", "2.1 ± 0.3 % ID"),
    ("[11CH3]Oc1ccc(F)c(F)c1C1CCN(c2ccn3c(CC4CC4)nnc3c2Cl)CC1 [[^11C]B-10]", "1.8 ± 0.4 % ID"),
]

--- query ---
Using the record for [11CH3]Oc1c(F)ccc(F)c1C1CCN(c2ccn3c(CC4CC4)nnc3c2Cl)CC1 [[^11C]B-2] , report its % ID Stomach. 3.7 ± 0.3 % ID

----------
procedure_details: Biodistribution studies of 11C tracers
Type: in vivo, Wistar rats
condition_notes: 60 min p.i.
Listed next: entries and their corresponding % ID Heart.
Numbers only here, please. The scale is % ID.

# compound, measurement_units, assay_result
rows = [
    ("[11CH3]Oc1ccc(F)cc1C1CCN(c2ccn3c(CC4CC4)nnc3c2Cl)CC1 [[^11C]B-4]", "% ID", 1.3),
    ("[11CH3]Oc1cc(F)cc(F)c1C1CCN(c2ccn3c(CC4CC4)nnc3c2Cl)CC1 [[^11C]B-7]", "% ID", 0.9),
    ("[11CH3]Oc1c(F)ccc(F)c1C1CCN(c2ccn3c(CC4CC4)nnc3c2Cl)CC1 [[^11C]B-2]", "% ID", 1.2),
]

Using the record for [11CH3]Oc1ccc(F)c(F)c1C1CCN(c2ccn3c(CC4CC4)nnc3c2Cl)CC1 [[^11C]B-10] , report its % ID Heart. 1.2

Then this compound: [11CH3]Oc1cccc(F)c1C1CCN(c2ccn3c(CC4CC4)nnc3c2Cl)CC1 [[^11C]B-6] 1.0

Then this compound: [11CH3]Oc1c(F)ccc(F)c1C1CCN(c2ccn3c(CC4CC4)nnc3c2C(F)(F)F)CC1 [[^11C]B-3] 1.1

----------
procedure_details: Biodistribution studies of 11C tracers
Type: in vivo, Wistar rats
condition_notes: 2 min p.i.
value_kind: % ID Carcass

# compound, value_kind, assay_result
records = [
    ("[11CH3]Oc1cccc(F)c1C1CCN(c2ccn3c(CC4CC4)nnc3c2Cl)CC1 [[^11C]B-6]", "% ID Carcass", "43.5 ± 1.4 % ID"),
    ("[11CH3]Oc1c(F)ccc(F)c1C1CCN(c2ccn3c(CC4CC4)nnc3c2C(F)(F)F)CC1 [[^11C]B-3]", "% ID Carcass", "36.0 ± 0.7 % ID"),
    ("[11CH3]Oc1ccc(F)c(F)c1C1CCN(c2ccn3c(CC4CC4)nnc3c2Cl)CC1 [[^11C]B-10]", "% ID Carcass", "38.5 ± 2.5 % ID"),
    ("[11CH3]Oc1ccc(F)cc1C1CCN(c2ccn3c(CC4CC4)nnc3c2Cl)CC1 [[^11C]B-4]", "% ID Carcass", "42.0 ± 2.0 % ID"),
]

--- query ---
Using the record for [11CH3]Oc1c(F)ccc(F)c1C1CCN(c2ccn3c(CC4CC4)nnc3c2Cl)CC1 [[^11C]B-2] , report its % ID Carcass. 38.4 ± 2.6 % ID

----------
procedure_details: Biodistribution studies of 11C tracers
Assay type: in vivo, Wistar rats
condition_notes: 2 min p.i., normalized for body weight
Listed next: entries and their corresponding SUV Cerebellum.
Reply with the value as a number alone.

Use these answered entries as a reference point.
# compound, assay_result
records = [
    ("[11CH3]Oc1c(F)ccc(F)c1C1CCN(c2ccn3c(CC4CC4)nnc3c2Cl)CC1 [[^11C]B-2]", 1.59),
    ("[11CH3]Oc1cccc(F)c1C1CCN(c2ccn3c(CC4CC4)nnc3c2Cl)CC1 [[^11C]B-6]", 1.62),
    ("[11CH3]Oc1cc(F)cc(F)c1C1CCN(c2ccn3c(CC4CC4)nnc3c2Cl)CC1 [[^11C]B-7]", 1.53),
]

Using the record for [11CH3]Oc1ccc(F)c(F)c1C1CCN(c2ccn3c(CC4CC4)nnc3c2Cl)CC1 [[^11C]B-10] , report its SUV Cerebellum. 1.59

----------
Listed next: entries and their corresponding GTPγS-hmGluR2 PAM pEC50.
assay_target: human mGluR2 receptor (Homo sapiens, UniProt Q14416)
Construct: expressed in transfected cells; host or cells: CHO cells (membranes)
Sequence (Q14416 19-872): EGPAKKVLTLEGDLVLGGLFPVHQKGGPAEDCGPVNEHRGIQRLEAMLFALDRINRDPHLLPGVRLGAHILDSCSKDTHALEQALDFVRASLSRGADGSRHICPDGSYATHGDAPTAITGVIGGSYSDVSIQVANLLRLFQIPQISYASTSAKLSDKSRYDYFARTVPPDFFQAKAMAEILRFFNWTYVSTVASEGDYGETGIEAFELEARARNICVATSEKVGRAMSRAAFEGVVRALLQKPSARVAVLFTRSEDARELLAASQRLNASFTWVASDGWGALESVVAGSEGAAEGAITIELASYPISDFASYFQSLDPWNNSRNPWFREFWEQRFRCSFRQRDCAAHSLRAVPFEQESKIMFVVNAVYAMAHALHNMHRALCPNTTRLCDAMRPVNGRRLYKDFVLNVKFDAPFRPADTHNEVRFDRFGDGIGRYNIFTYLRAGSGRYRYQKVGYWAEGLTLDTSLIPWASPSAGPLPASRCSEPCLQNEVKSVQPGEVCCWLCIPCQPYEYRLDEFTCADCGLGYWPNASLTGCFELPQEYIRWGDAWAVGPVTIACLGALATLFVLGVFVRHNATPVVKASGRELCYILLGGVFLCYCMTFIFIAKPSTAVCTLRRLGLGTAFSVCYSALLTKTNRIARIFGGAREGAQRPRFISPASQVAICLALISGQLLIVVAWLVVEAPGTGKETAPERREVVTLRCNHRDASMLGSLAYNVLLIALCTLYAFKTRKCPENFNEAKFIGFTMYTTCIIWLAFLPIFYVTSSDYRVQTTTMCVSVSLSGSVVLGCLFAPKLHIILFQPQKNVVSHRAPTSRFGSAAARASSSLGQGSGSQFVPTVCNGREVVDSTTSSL
procedure_details: [35S]GTPγS binding assay, mGluR2 positive allosteric modulation (PAM)
Type: biochemical
condition_notes: in presence of ~EC20 glutamate, membranes of CHO cells with human mGluR2
Reply with the value as a number alone.

Use these answered entries as a reference point.
# compound_structure_string, GTPγS-hmGluR2 PAM pEC50
measured = [
    ("COc1cccc(F)c1C1CCN(c2ccn3c(CC4CC4)nnc3c2Cl)CC1", 8.22),
    ("COc1c(F)cccc1C1CCN(c2ccn3c(CC4CC4)nnc3c2Cl)CC1", 7.43),
    ("COc1ccccc1C1CCN(c2ccn3c(CC4CC4)nnc3c2Cl)CC1", 7.7),
    ("COc1ccc(F)c(F)c1C1CCN(c2ccn3c(CC4CC4)nnc3c2Cl)CC1", 8.03),
]

Using the record for COc1cc(F)cc(F)c1C1CCN(c2ccn3c(CC4CC4)nnc3c2Cl)CC1 , report its GTPγS-hmGluR2 PAM pEC50. 8.16

Then this compound: COc1c(F)ccc(F)c1C1CCN(c2ccn3c(CC4CC4)nnc3c2C(F)(F)F)CC1 8.39

Then this compound: COc1ccc(F)cc1C1CCN(c2ccn3c(CC(F)(F)F)nnc3c2Cl)CC1 7.98
